- Protocol Summary: qHTS Assay for Lipid Storage Modulators in Drosophila S3 Cells;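 also: cells counted by Cell Tracker Red CMTPX staining in the red channel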
- Cond: BODIPY lipid droplet fluorescence, 18-24 h, cells fed with added oleic acid; measured here: cell count max response
Hit rate of the full screen: of about 320,000 compounds, about 2,100 (0.66%) were called active. Not shown: some 53% with an inconclusive outcome. What follows is part of a selection rich in actives, with near analogues and random picks from the rest.
Listed next: entries and their corresponding cell number change.
Measured Metric: cell number change

[
  {
    "Compound": "c1ccc(CSc2nnc(-c3ccco3)o2)cc1",
    "Reported Value": "29.7%"
  },
  {
    "Compound": "COc1ccc(CCNC(=O)Cn2cnc3c(nnn3Cc3ccc(C)cc3)c2=O)cc1OC",
    "Reported Value": "-15.1%"
  },
  {
    "Compound": "Nc1ncc(Br)cc1S(=O)(=O)Nc1cc(C(F)(F)F)cc(C(F)(F)F)c1",
    "Reported Value": "-15.9%"
  },
  {
    "Compound": "COc1ccc(-n2nc([N+](=O)[O-])c(=NCCc3ccc(C)cc3)n2O)cc1",
    "Reported Value": "-0.674%"
  },
  {
    "Compound": "O=C(CN1CCC(C(=O)c2ccc(F)cc2)CC1)Nc1ccc(F)cc1",
    "Reported Value": "-11.2%"
  },
  {
    "Compound": "O=C(O)C1CC1C(=O)N1CCN(c2ccc(Cl)c(Cl)c2)CC1 (stereo unspecified)",
    "Reported Value": "16.3%"
  },
  {
    "Compound": "COc1ccc(-n2nc([N+](=O)[O-])c(=NCCc3ccc(OC)c(OC)c3)n2O)cc1",
    "Reported Value": "-7.82%"
  },
  {
    "Compound": "Nc1ncc(Br)cc1S(=O)(=O)NC1CCCCC1",
    "Reported Value": "6.11%"
  },
  {
    "Compound": "CCCCNC(=O)COC(=O)c1c2c(nc3ccccc13)CCC2",
    "Reported Value": "1.26%"
  },
  {
    "Compound": "CCOc1ccccc1NC(=O)Cn1c(=O)oc2cc(Cl)ccc21",
    "Reported Value": "6.12%"
  },
  {
    "Compound": "Cc1cc(C)cc(OCC(=O)OCC(=O)NC2CCCCCCC2)c1",
    "Reported Value": "-3.74%"
  }
]

====

- Protocol Summary: qHTS Assay for Lipid Storage Modulators in Drosophila S3 Cells;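 also: cells counted by Cell Tracker Red CMTPX staining in the red channel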
- Cond: BODIPY lipid droplet fluorescence, 18-24 h, cells fed with added oleic acid; measured here: cell count max response
- From the text: NIH Molecular Libraries Probe Production Centers Network [MLPCN] NIH Chemical Genomics Center [NCGC] […] Triacsin C (Sigma-Aldrich T-4540), an inhibitor of long-chain fatty acyl CoA synthetase that blocks synthesis of triglycerides, was used as a positive control for lipid under-storage. […] Fluorescence was detected by excitation of the fluorophores with a 488-nm laser on an Acumen Explorer (TTP Lab Tech). […] Cells were detected using channel 3 (575-640 nm) with 5-um width and 100-um depth filters. […]
The campaign covered roughly 320,000 compounds. About 2,100 (0.66%) were called active. Inconclusive results (about 53%) are left out. The full list was thinned out, with actives kept by preference.
Listed next: entries and their corresponding cell number change.

[
  {
    "Compound": "Cc1ccc(OCc2ccc(C(=O)NCC3CCCO3)cc2)cc1C (stereo not given)",
    "cell number change [%]": -8.64
  },
  {
    "Compound": "COc1ccc(CCNc2ncnc3sc(C)cc23)cc1OC",
    "cell number change [%]": -27
  },
  {
    "Compound": "Cc1ccc(OCc2ccc(C(=O)NCC3CCCO3)cc2)cc1 (stereo not given)",
    "cell number change [%]": 13.4
  },
  {
    "Compound": "COc1cccc(NC(=O)Cn2nnc(C(=O)Nc3ccccc3)c2N)c1",
    "cell number change [%]": -18.5
  },
  {
    "Compound": "O=C(NC1CC1)c1ccc(S(=O)(=O)NCC2CCCCC2)cc1",
    "cell number change [%]": 6.17
  },
  {
    "Compound": "O=C(C1CCN(C2CCN(C/C=C/c3ccccc3)CC2)CC1)N1CCOCC1",
    "cell number change [%]": 7.25
  },
  {
    "Compound": "CCOc1ccc(Cn2nnc(C(=O)NCCc3ccccc3)c2N)cc1",
    "cell number change [%]": -4.24
  },
  {
    "Compound": "CN(C)c1ccc(/C=N/NC(=O)c2nnn(-c3nonc3N)c2CN(C)c2ccccc2)cc1",
    "cell number change [%]": 24.5
  },
  {
    "Compound": "Cc1c(N)cccc1N",
    "cell number change [%]": 16.6
  },
  {
    "Compound": "COc1ccc(C(=O)NCCc2cnc[nH]2)cc1OC",
    "cell number change [%]": -11.3
  },
  {
    "Compound": "COc1ccc(-n2ncc(C(C)NS(=O)(=O)c3cc(F)ccc3C)c2C)cc1 (stereo not given)",
    "cell number change [%]": -20.2
  },
  {
    "Compound": "COc1ccc(-n2ncc(C(C)NS(=O)(=O)c3ccc(C(C)=O)cc3)c2C)cc1 (stereo not given)",
    "cell number change [%]": -7.79
  },
  {
    "Compound": "CCOC(=O)C1CCCN(C(=O)c2ccc3nc(-c4cccc(OC)c4)oc3c2)C1 (stereo not given)",
    "cell number change [%]": 6.9
  },
  {
    "Compound": "CCOC(=O)N1CCN(C(=O)/C=C/c2c(C)nn(-c3ccc(F)cc3)c2Cl)CC1",
    "cell number change [%]": -7.81
  },
  {
    "Compound": "COc1cccc(-c2ccc(C#N)c(OC(=O)c3c(Cl)cccc3Cl)n2)c1",
    "cell number change [%]": -22.9
  },
  {
    "Compound": "CN(C)S(=O)(=O)c1ccc(C(=O)Oc2coc(CSc3ncccn3)cc2=O)cc1",
    "cell number change [%]": 6.85
  },
  {
    "Compound": "Cc1cc(C)cc(NC(=O)N2CCC(NC(=O)c3ccccc3C)CC2)c1",
    "cell number change [%]": 4.64
  },
  {
    "Compound": "Cc1cccc(Nc2nc(N)c([N+](=O)[O-])c(NCCO)n2)c1",
    "cell number change [%]": -0.837
  },
  {
    "Compound": "COC(=O)c1ccc(-c2noc(CN3C[C@H]4CC[C@H]3C4)n2)cc1",
    "cell number change [%]": -0.0392
  },
  {
    "Compound": "CCn1c(CSc2nc3ccccc3s2)nnc1SCC(=O)c1ccc(O)cc1O",
    "cell number change [%]": -7.44
  },
  {
    "Compound": "CN(Cc1c(C(=O)N/N=C/c2ccc(O)cc2)nnn1-c1nonc1N)c1ccccc1",
    "cell number change [%]": -9.24
  },
  {
    "Compound": "O=C(CN1CCC(NC(=O)c2ccccc2F)CC1)NCc1ccc(F)cc1",
    "cell number change [%]": -14.5
  },
  {
    "Compound": "CCOC(=O)c1c(NC(=O)C2CC=CCC2C(=O)O)sc(C)c1CC (stereo not given)",
    "cell number change [%]": 12.8
  },
  {
    "Compound": "CCc1c(C)sc(NC(=O)C2CC2)c1C(=O)OC(C)C",
    "cell number change [%]": -47.8
  },
  {
    "Compound": "CCn1c(CNc2ccc(C)cc2)nnc1SCC(=O)NCc1ccccc1",
    "cell number change [%]": -12.4
  },
  {
    "Compound": "COc1ccccc1NS(=O)(=O)c1ccc2oc(SCc3ccc(F)cc3)nc2c1",
    "cell number change [%]": -19.8
  },
  {
    "Compound": "O=C(CSc1nc2ccc(S(=O)(=O)N3CCOCC3)cc2[nH]1)N1CCOCC1",
    "cell number change [%]": 8.23
  },
  {
    "Compound": "COC(=O)c1sccc1S(=O)(=O)NC(C)c1cnn(-c2ccc(OC)cc2)c1C (stereo not given)",
    "cell number change [%]": 19.6
  },
  {
    "Compound": "CCOC(=O)C1=C(N)N2C(=O)C(C)SC2=C(C(=O)OC)C1c1ccccc1OC (stereo not given)",
    "cell number change [%]": -22.7
  },
  {
    "Compound": "Cc1ccccc1C(=O)NC1CCN(C(=O)Nc2ccc(F)cc2)CC1",
    "cell number change [%]": 8.56
  },
  {
    "Compound": "COCCNC(=O)CN(Cc1ccc(Cl)cc1)S(C)(=O)=O",
    "cell number change [%]": -6.66
  },
  {
    "Compound": "Cc1cc(C)cc(OCC(=O)OCC(=O)NCc2cccs2)c1",
    "cell number change [%]": -3.19
  },
  {
    "Compound": "COc1ccc(OCC(=O)NCCc2c[nH]c3ccccc23)cc1",
    "cell number change [%]": -0.0954
  },
  {
    "Compound": "Cc1c(C(=O)OCC(=O)NCc2ccco2)oc2ccccc12",
    "cell number change [%]": -15.4
  },
  {
    "Compound": "CC(=O)NCCc1nc2ccccc2n1CCOc1ccccc1",
    "cell number change [%]": 18.1
  },
  {
    "Compound": "Cc1ccc(C)c(SCC(=O)NCc2ccco2)c1",
    "cell number change [%]": -4.84
  },
  {
    "Compound": "Cc1cc(C)cc(OCC(=O)OCC(=O)NCc2ccco2)c1",
    "cell number change [%]": 10.8
  },
  {
    "Compound": "O=C1C(NS(=O)(=O)c2cccs2)=C(N2CCOCC2)C(=O)c2ccccc21",
    "cell number change [%]": -7.78
  },
  {
    "Compound": "N#Cc1ccccc1S(=O)(=O)N1CCN(C(=O)CN2CCCSc3ccccc32)CC1",
    "cell number change [%]": -12.9
  },
  {
    "Compound": "COc1ccc(NC(=O)Cn2nnc(C(=O)NCCc3ccccc3)c2N)c(OC)c1",
    "cell number change [%]": 6.1
  },
  {
    "Compound": "O=C(COC(=O)COc1ccc(Nc2ccccc2)cc1)NCc1ccco1",
    "cell number change [%]": 8.25
  },
  {
    "Compound": "N#Cc1ccccc1S(=O)(=O)N1CCN(C(=O)C2CCC2)CC1",
    "cell number change [%]": 17.3
  },
  {
    "Compound": "COc1cccc(NC(=O)Cn2nnc(C(=O)NCCc3ccccc3)c2N)c1",
    "cell number change [%]": 2.67
  },
  {
    "Compound": "Cc1noc(C)c1COc1ccc(C(=O)NCC2CCCO2)cc1 (stereo not given)",
    "cell number change [%]": -13.5
  },
  {
    "Compound": "Cc1cc(C)c2nc(N(CCCN(C)C)C(=O)C3=COCCO3)sc2c1",
    "cell number change [%]": -20
  }
]
